# Test system: Burkholderia pseudomallei Human/Blood/OH/US/1994
# procedure text: microbe, parasite or virus in culture
# Format: cell-based
# measurement setup: Burkholderia pseudomallei, read-out: MIC B. pseudomallei Human/Blood/OH
quantity measured: MIC
Answer as a quantity: numeral, then unit.

# example entries with known answers
[[record]]
molecule = "CCCCc1ccc(C=C(CC)C(=O)c2c(O)cc(C(C)CC/C=C/NC(=O)OC)oc2=O)s1 (mixture of isomers) [APY21]"
recorded_measurement = "10 µg/mL"

[[record]]
molecule = "C=CCCCCc1ccc(C=C(C)C(=O)c2c(O)cc(C(C)CC/C=C/NC(=O)OC)oc2=O)s1 (mixture of isomers) [APY29]"
recorded_measurement = "10 µg/mL"


Consider now this further molecule.
Noted for CCCCCc1ccc(C=C(C)C(=O)c2c(O)cc(C(C)CC/C=C/NC(=O)OC)oc2=O)s1 (mixture of isomers) [APY59] : its MIC reads 10 µg/mL
